Items are presented alongside their recorded glycan array binding signal (z-score).
Target: Gal(b1-3)GlcNAc(b1-6)[Gal(b1-3)]GalNAc
Assay: glycan array binding signal (z-score within array); higher = stronger binding
Conditions: glycan notation: IUPAC condensed, linker removed
This is one part of a sample in which the strongest signals are shown more often than they occur.
# print the numeric value only

For orientation, consider the following solved cases.
BINDER	glycan array binding signal (z-score)
Fm1D (Escherichia coli) (protein) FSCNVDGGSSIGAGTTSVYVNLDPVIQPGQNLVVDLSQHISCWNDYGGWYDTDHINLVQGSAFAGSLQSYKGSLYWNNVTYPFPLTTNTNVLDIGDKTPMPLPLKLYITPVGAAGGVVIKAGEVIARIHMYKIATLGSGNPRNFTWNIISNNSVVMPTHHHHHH	3.7
Mnn9-2N3 (Aspergillus fumigatus) (protein) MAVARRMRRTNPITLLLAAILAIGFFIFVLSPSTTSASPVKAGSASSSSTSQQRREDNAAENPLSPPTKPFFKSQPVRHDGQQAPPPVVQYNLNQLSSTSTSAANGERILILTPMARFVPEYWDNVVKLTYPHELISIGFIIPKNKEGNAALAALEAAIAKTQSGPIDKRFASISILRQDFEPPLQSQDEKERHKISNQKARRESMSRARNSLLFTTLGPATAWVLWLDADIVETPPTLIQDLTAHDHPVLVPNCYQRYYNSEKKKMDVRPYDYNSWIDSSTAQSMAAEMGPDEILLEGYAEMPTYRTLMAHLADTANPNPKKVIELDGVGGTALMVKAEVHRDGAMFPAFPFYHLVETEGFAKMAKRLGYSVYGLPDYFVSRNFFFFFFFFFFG	-0.321
Aap arpt (Staphylococcus epidermidis) (protein) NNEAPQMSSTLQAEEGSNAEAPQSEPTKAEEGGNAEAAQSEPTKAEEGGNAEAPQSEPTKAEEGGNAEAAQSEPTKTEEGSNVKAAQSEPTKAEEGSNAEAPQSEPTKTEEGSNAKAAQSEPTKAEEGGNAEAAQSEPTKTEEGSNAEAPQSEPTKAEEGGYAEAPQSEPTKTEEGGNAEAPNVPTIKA	0.662
Mg1lysM (Mycosphaerella graminicola) (protein) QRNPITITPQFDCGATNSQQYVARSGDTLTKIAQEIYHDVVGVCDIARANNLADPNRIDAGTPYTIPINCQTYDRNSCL	-0.054

[ask] What does the data say about its glycan array binding signal (z-score)? Entry: Epa13 (Candida glabrata) (protein) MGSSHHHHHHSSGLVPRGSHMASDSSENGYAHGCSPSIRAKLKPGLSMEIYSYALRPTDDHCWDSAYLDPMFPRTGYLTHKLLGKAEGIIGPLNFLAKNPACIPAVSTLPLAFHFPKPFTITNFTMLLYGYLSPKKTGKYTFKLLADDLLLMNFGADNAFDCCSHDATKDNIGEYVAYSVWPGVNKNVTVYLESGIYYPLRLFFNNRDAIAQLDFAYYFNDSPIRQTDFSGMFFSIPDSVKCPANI
[reply] -0.014
